METHOD SUMMARY: Inhibition of epidermal growth factor receptor (EGFR) autophosphorylation
Format: functional
pIC50: −log10 of the molar value.
// values below are reported pIC50
MEASURE NAME: pIC50

• O=C(O)c1cc(/C=C/c2cc(O)ccc2O)ccc1O = 5.70
• O=C(O)c1cc(CCc2cc(O)ccc2O)ccc1O = 4.70
• O=C(O)c1cc(/C=C/c2ccc(O)c(O)c2)ccc1O = 5.30
• O=C(O)c1cc(NCc2cc(O)ccc2O)ccc1O = 5.40
• O=C(O)c1cc(N(Cc2ccccc2O)Cc2cc(O)ccc2O)ccc1O = 5.15
• O=C(O)c1cc(/N=C/c2cc(O)ccc2O)ccc1O = 5.05

----------
METHOD SUMMARY: Inhibition of c-erb B-2/HER2/neu receptor
Type: functional
MEASURE NAME: IC50 (nM)

* O=C(O)c1cc(/C=C/c2cc(O)ccc2O)ccc1O | 600
* O=C(O)c1cc(CCc2cc(O)ccc2O)ccc1O | 4000
* O=C(O)c1cc(/N=C/c2cc(O)ccc2O)ccc1O | 70000
* O=C(O)c1cc(NCc2cc(O)ccc2O)ccc1O | 900
* O=C(O)c1cc(/C=C/c2ccc(O)c(O)c2)ccc1O | 200
* O=C(O)c1cc(N(Cc2ccccc2O)Cc2cc(O)ccc2O)ccc1O | 9000

----------
Entries and their IC50 values follow.
TEST SYSTEM: Tyrosine-protein kinase Lck (Homo sapiens)
Sequence (P06239 whole entry): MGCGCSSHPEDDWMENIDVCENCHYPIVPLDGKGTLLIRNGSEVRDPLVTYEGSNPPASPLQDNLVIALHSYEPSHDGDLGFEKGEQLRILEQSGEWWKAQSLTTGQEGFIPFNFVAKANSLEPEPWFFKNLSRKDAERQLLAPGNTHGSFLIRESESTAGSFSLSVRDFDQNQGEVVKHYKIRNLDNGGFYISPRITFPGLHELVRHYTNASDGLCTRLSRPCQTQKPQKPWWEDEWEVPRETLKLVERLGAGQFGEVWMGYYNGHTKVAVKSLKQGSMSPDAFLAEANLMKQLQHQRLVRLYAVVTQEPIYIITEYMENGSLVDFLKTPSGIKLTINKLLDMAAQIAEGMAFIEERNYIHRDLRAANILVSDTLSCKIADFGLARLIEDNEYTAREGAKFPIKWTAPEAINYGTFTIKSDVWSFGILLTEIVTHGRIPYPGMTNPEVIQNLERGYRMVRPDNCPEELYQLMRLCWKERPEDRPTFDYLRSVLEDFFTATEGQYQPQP
METHOD SUMMARY: Inhibition of p56lck autophosphorylation
MEASURE NAME: IC50 (µM)

* O=C(O)c1cc(CCc2ccc(O)c(O)c2)ccc1O | 1
* O=C(O)c1cc(N(Cc2ccccc2O)Cc2cc(O)ccc2O)ccc1O | 8
* O=C(O)c1cc(/C=C/c2cc(O)ccc2O)ccc1O | 0.06
* O=C(O)c1cc(/N=C/c2cc(O)ccc2O)ccc1O | 85
* O=C(O)c1cc(CCc2cc(O)ccc2O)ccc1O | 1
* O=C(O)c1cc(NCc2cc(O)ccc2O)ccc1O | 10

----------
METHOD SUMMARY: Inhibition of epidermal growth factor receptor (EGFR)
pIC50: −log10 of the molar value.
MEASURE NAME: pIC50

• O=C(O)c1cc(CCc2ccc(O)c(O)c2)ccc1O = 4.92
